From: patent US20220267469A1

# assayedTarget: T1, Biotinylated human BSSL (human, UniProt P19835 21-753, Biotinylated on glycosacarides, 30-40 biotin/BSSL)
# T1 construct: hBSSL biotinylated in house; also called b-hBSSL; human BSSL-biotin
# T1 sequence: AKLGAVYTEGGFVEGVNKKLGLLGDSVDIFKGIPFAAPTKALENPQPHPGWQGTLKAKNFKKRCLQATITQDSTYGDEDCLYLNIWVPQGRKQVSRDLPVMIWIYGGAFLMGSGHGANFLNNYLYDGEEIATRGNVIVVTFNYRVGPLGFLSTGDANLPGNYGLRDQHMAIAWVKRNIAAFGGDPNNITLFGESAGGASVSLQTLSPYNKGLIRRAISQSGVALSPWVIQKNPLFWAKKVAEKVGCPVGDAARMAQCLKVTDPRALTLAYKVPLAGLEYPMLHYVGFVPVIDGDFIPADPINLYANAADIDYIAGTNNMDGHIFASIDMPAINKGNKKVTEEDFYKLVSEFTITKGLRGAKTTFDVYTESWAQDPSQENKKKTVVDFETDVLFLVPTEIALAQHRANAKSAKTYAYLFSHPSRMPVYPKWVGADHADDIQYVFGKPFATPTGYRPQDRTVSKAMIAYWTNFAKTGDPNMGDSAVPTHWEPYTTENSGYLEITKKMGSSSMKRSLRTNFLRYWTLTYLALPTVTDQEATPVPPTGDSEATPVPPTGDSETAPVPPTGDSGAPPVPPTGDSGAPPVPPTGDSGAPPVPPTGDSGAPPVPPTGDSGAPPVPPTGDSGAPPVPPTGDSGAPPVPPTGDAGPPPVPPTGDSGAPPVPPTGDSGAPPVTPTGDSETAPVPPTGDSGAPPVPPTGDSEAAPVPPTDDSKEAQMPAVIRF
# assayProcedure: flow cytometry displacement assay; 3.0 ug antibody, 1 ug b-hBSSL
readoutName: percentage reduction of b-hBSSL binding to CD14+ monocytes (%)
Write the value in % as a bare number.

Param item = S-SL048-104 hIgG4 S228P (antibody, V domains shown, Tested as human IgG4 S228P) VH: QVQLVQSGAEVKKPGASVKVSCKASGYTFTSYNMHWVRQAPGQGLEWMGVINPGDGATSYDQKFKGRVTMTRDTSTSTVYMELSSLRSEDTAVYYCARDYYGSSPLGYWGQGTLVTVSS VL: DIQMTQSPSSLSASVGDRVTITCSASSSISYLHWYQQKPGKAPKLLIYAASRLASGVPSRFSGSGSGTDFTLTISSLQPEDFATYYCHQRSSTPTFGQGTKLEIK ; retrieve measured percentage reduction of b-hBSSL binding to CD14+ monocytes. 44
